Species on record: Cavia porcellus
PROTOCOL NOTES: Selectivity ratio of Ki for guinea pig sigma2 receptor to Ki for guinea pig sigma1 receptor
ENDPOINT NAME: Ratio Ki
Just the number, please, no unit after it.

Examples from the recorded data:
> print(dat)
                                   molecule  value.observed
1  O=C(CCCCC1CCSS1)N1CCN(CCCc2ccccc2)CC1 (stereo unspecified)            9.16
2  O=C(CCCCC1CCSS1)N1CCN(Cc2ccccc2)CC1 (stereo unspecified)             354
3  O=C(CCCCC1CCSS1)N1CCN(CCc2ccccc2)CC1 (stereo unspecified)            24.8
4  O=C(CCCCC1CCSS1)OC1CCN(CC2CCCCC2)CC1 (stereo unspecified)            12.3
5  O=C(CCCCC1CCSS1)OC1CCN(CCc2ccccc2)CC1 (stereo unspecified)            11.8

// switching to the query molecule
Recorded result, O=C(CCCCC1CCSS1)N1CCN(C2CCCCC2)CC1 (stereo unspecified) , Ratio Ki: 28

###

Entries annotated with measured pKi
TARGET DESC: Sigma non-opioid intracellular receptor 1 (Cavia porcellus, UniProt Q60492)
Sequence (Q60492 whole entry): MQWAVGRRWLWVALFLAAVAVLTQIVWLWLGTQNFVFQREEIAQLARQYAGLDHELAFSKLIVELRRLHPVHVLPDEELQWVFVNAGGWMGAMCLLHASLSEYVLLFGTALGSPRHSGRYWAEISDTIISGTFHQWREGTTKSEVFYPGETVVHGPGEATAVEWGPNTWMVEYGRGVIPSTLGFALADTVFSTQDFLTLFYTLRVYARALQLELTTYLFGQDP
PROTOCOL NOTES: Displacement of [3H]-(+)-pentazocine from sigma1 receptor in guinea pig brain membrane after 150 mins by liquid scintillation counting analysis
# pKi = -log10(concentration in molar units)

Below: 2 molecules and their reported pKi.
> print(dat)
                                   molecule  endpoint.name  value.observed
1  O=C(CCCCC1CCSS1)N1CCN(CCc2ccccc2)CC1 (stereo not drawn)            pKi            8.08
2  O=C(CCCCC1CCSS1)N1CCN(CCCc2ccccc2)CC1 (stereo not drawn)            pKi            8.00

Looking up O=C(CCCCC1CCSS1)OC1CCN(CCc2ccccc2)CC1 (stereo not drawn) , I found its pKi recorded as 7.87

###

PROTOCOL NOTES: Displacement of [3H]DTG from sigma2 receptor in guinea pig brain membrane after 120 mins by liquid scintillation counting analysis
Format: cell membranes, Cavia porcellus
// reported Ki per item
Answer format: number, then unit.

Input O=C(CCCCC1CCSS1)N1CCN(Cc2ccccc2)CC1 (centres undefined) . Output Ki: 637 nM

###

TARGET DESC: Sigma non-opioid intracellular receptor 1 (Cavia porcellus)
PROTOCOL NOTES: Displacement of [3H]-(+)-pentazocine from sigma1 receptor in guinea pig brain membrane after 150 mins by liquid scintillation counting analysis
ENDPOINT NAME: pKi
Scale note: pKi = -log10(concentration in M).

> print(dat)
                                   compound  endpoint.name  value.observed
1  O=C(CCCCC1CCSS1)OC1CCN(CCCc2ccccc2)CC1 (stereo unspecified)            pKi            7.59

Recorded result, CN1CCN(C(=O)CCCCC2CCSS2)CC1 (stereo unspecified) , pKi: 6.94

What the record says about O=C(CCCCC1CCSS1)OC1CCN(CC2CCCCC2)CC1 (stereo unspecified) : pKi is 8.94

Query O=C(CCCCC1CCSS1)N1CCN(Cc2ccccc2)CC1 (stereo unspecified) yields pKi of 8.74

Data point: O=C(CCCCC1CCSS1)N1CCN(C2CCCCC2)CC1 (stereo unspecified) ; pKi = 9.40

Per the records, this compound ( O=C(CCCCC1CCSS1)OC1CCN(Cc2ccccc2)CC1 (stereo unspecified) ) has pKi equal to 8.25

###

Species: Cavia porcellus
PROTOCOL NOTES: Selectivity ratio of Ki for guinea pig sigma2 receptor to Ki for guinea pig sigma1 receptor
ENDPOINT NAME: Ratio Ki
Field format: numeric only.

Known Ratio Ki results, listed for orientation:
> print(dat)
                                   molecule  value.observed
1  CN1CCN(C(=O)CCCCC2CCSS2)CC1 (stereo not drawn)             183
2  O=C(CCCCC1CCSS1)OC1CCN(Cc2ccccc2)CC1 (stereo not drawn)             414

Now turn to the next molecule.
For this molecule ( O=C(CCCCC1CCSS1)OC1CCN(CCCc2ccccc2)CC1 (stereo not drawn) ), measured Ratio Ki is 3.9

###

PROTOCOL NOTES: Displacement of [3H]DTG from sigma2 receptor in guinea pig brain membrane after 120 mins by liquid scintillation counting analysis
Type: cell membranes, Cavia porcellus
ENDPOINT NAME: Ki (nM)
The response must be a number in nM with no trailing unit.

Known results for molecules:
> print(dat)
                                   molecule  value.observed
1  CN1CCN(C(=O)CCCCC2CCSS2)CC1 (stereo not drawn)           21000
2  O=C(CCCCC1CCSS1)OC1CCN(CC2CCCCC2)CC1 (stereo not drawn)              14

GET /value?item= O=C(CCCCC1CCSS1)N1CCN(CCCc2ccccc2)CC1 (stereo not drawn) &field=Ki returns 91.6

The molecule listed as O=C(CCCCC1CCSS1)N1CCN(C2CCCCC2)CC1 (stereo not drawn) shows Ki equal to 11.2

Just so you know, measured Ki for O=C(CCCCC1CCSS1)OC1CCN(Cc2ccccc2)CC1 (stereo not drawn) came out at 2300

###

PROTOCOL NOTES: Displacement of [3H]DTG from sigma2 receptor in guinea pig brain membrane after 120 mins by liquid scintillation counting analysis
Format: cell membranes, Cavia porcellus
ENDPOINT NAME: pKi
On this scale, pKi is minus log10 of a concentration expressed in M (mol/L).

Use the examples below as a reference point.
> print(dat)
                                   compound  endpoint.name  value.observed
1  O=C(CCCCC1CCSS1)N1CCN(CCc2ccccc2)CC1 (stereo not drawn)            pKi            6.68
2  O=C(CCCCC1CCSS1)OC1CCN(CCCc2ccccc2)CC1 (stereo not drawn)            pKi            7.00

Note: attention shifts to another entry.
Looking up O=C(CCCCC1CCSS1)OC1CCN(CCc2ccccc2)CC1 (stereo not drawn) , I found its pKi recorded as 6.79
